Data credit: ChEMBL document CHEMBL4296182

Parameter: Inhibition. Scope: all listed entries.
Tested on: Candida albicans
setup.conditions: 20 µM
Description: Antifungal activity against Candida albicans ATCC 90028 (CO-ADD:FG_001); MIC in YNB media using NBS plates, by OD630
Potency and affinity values are given separately.
experimental.readout: Inhibition (%)

> print(dat)
                                    compound  value.units  recorded.result
 1  Cc1ccc(S(=O)(=O)NNC(=O)C23CCC(CC2)C3)cc1            %             4.46
 2          CC(=O)Nc1nc(C)c(CCC2OCCO2)c(O)n1            %             5.32
 3  N#CC1=CC2CN(Cc3ccccc3)C1C1C(=O)N(c3ccccc3)C(=O)C21 (stereo not drawn)            %             9.06
 4  Cc1cc(NC(=O)OC(C)C)ccc1-c1ccc(NC(=O)OC(C)C)cc1C            %             2.22
 5             CCOC(=O)/C(C#N)=C/c1cccc(C)c1            %             19.3
 6                  Cc1cnc2c(N)cc(C)c(C)c2c1            %             23.1
 7          CC(=C/c1ccccc1)/C=C1/NC(=S)NC1=O            %             2.17
 8                        Oc1ccccc1Nc1ccccn1            %             1.04
 9                    Nc1ncnc2c1cnn2C1CCCCC1            %             1.58
10             CSc1cccc(NC(=O)N2CCN(C)CC2)c1            %             3.78
11    Cn1c(SCc2ccccn2)nc2c1c(=O)[nH]c(=O)n2C            %             0.41
12                 NNC(=O)CNC(=O)Nc1nnc(S)s1            %              2.5
13                       CCCCSc1cc(O)nc(N)n1            %            -1.45

====

Test system: Klebsiella pneumoniae
setup.conditions: Concentration 20 uM; ASSAY_TEST Inhibition of Bacterial Growth; detection method Absorption (OD600); MEDIA CAMHB; plate type 384well; NBS; CORNING #3640; time 18 hr
Description: Antibacterial activity against Klebsiella pneumoniae MDR ATCC 70063 (CO-ADD:GN_003); MIC in CAMBH media using NBS plates, by OD(600)
Measured potencies and affinities stand elsewhere.
experimental.readout: Inhibition (%)

> print(dat)
                                    compound  experimental.readout  recorded.result
 1                          CC(C)Cc1nnc(N)s1            Inhibition            28.97
 2        NC(=O)c1ccccc1NC(=O)COc1ccc(Cl)cc1            Inhibition             7.02
 3  CCOC(=O)c1ccc(NC(=O)Oc2cc(C)c(Cl)cc2C(C)C)cc1            Inhibition            12.01
 4            C=CCNC(=S)N1CCN(c2ccccc2Cl)CC1            Inhibition            17.35
 5                     N#Cc1ncc(Cl)c2ccccc12            Inhibition             7.91
 6   CCOP(=O)(OCC)/C(C#N)=C/c1c[nH]c2ccccc12            Inhibition            13.34
 7  O=[N+]([O-])c1ccc2c3ccccc3[s+]([O-])c2c1 (centres undefined)            Inhibition             9.17
 8         CCCCNCC1CCCO1 (centres undefined)            Inhibition             9.23
 9  CCN(CC)CCNC(=O)c1ccc(NCN2C(=O)NC(c3ccccc3)(c3ccccc3)C2=O)cc1            Inhibition             8.03
10  CC(=O)[C@H]1CC[C@H]2[C@@H]3CCC4=CC(=O)C=C[C@]4(C)[C@H]3C(=O)C[C@]12C            Inhibition            23.74
11  CC(=O)NCC1(O)CCCC(C)C1 (centres undefined)            Inhibition             9.82
12    CC(C)(C)NC(=O)c1ccc(C(=O)NC(C)(C)C)cc1            Inhibition             15.3
13      COc1ccc(C(=S)N2CCN(c3ccccc3C)CC2)cc1            Inhibition            10.93
14  FC(F)(F)c1cccc(OCC2CN=C(S)O2)c1 (centres undefined)            Inhibition            16.05
15                      Cn1ncc2c(O)nc(N)nc21            Inhibition            14.42
16  Cn1c(=O)c2nc(COc3ccc(C(C)(C)C)cc3)[nH]c2n(C)c1=O            Inhibition             9.47
17  CS(=O)(=O)O.OC(c1cc(C(F)(F)F)nc2c(Cl)cc(Cl)cc12)C1CCCCN1 (centres undefined)            Inhibition              9.3
18  CC1=CC2C(C(O)CC3(C)C2CC(C)C32OCOC23COCO3)C2(C)C/C(=C/O)C(=O)C=C12 (centres undefined)            Inhibition             4.64
19    CCOC(=O)c1nn(C)c2[nH]c(=O)n(C)c(=O)c12            Inhibition            11.59
20  N#CC1C=Cc2c(ccc3ccccc23)N1C(=O)c1ccccc1 (centres undefined)            Inhibition            24.48
21                         Nc1cc(O)nc2ncnn12            Inhibition             6.69
22      O=c1[nH]c(=S)c2ncn(-c3ccccc3)c2[nH]1            Inhibition             1.95
23  O=c1n(CC2CO2)c(=O)n(CC2CO2)c(=O)n1CC1CO1 (centres undefined)            Inhibition             8.68
24            COc1ccc2c(n1)Sc1nc3ccccc3nc1N2            Inhibition             4.25
25             CS(=O)(=O)Oc1ccc(Br)c2cccnc12            Inhibition            19.67
26        Oc1cc(CNC2CCCCC2)c(O)cc1CNC1CCCCC1            Inhibition            11.38
27  CC1(C)CCCC2(C)C(OCCO)=CC(=O)C=C12 (centres undefined)            Inhibition            20.08
28  Cc1cccc(N2CCN(CC(O)COc3ccccc3Cl)CC2)c1 (centres undefined)            Inhibition            12.03
29  CCOP(=O)(OCC)/C(C#N)=C/c1ccc([N+](=O)[O-])cc1            Inhibition             9.62
30    c1ccc(CSc2nnc3c4ccccc4c4ccccc4c3n2)cc1            Inhibition             1.09
31  O=C1c2ccccc2C(=O)c2c(Nc3ccc(CCO)cc3)ccc(O)c21            Inhibition             4.66
32                     NNC(=O)CNc1cccc(Br)c1            Inhibition             8.17
33                      CCCSc1ncnc2[nH]ncc12            Inhibition            27.49
34      O=c1c(-c2ccc(O)cc2)coc2cc(O)cc(O)c12            Inhibition            22.48
35  NC(=O)N/N=C1\CC2CC1C1C=CCC21 (centres undefined)            Inhibition            17.34
36                 Nc1ccc2c(c1)nnn2-c1ccccc1            Inhibition            -7.86
37  CC(=O)Nc1ccc(OCCOc2ccc([N+](=O)[O-])cc2)cc1            Inhibition            10.72
38            c1ccc(-c2nc[nH]c2-c2ccccc2)cc1            Inhibition             6.07
39  COCC(=O)OC1CCn2c1nc1c2C(=O)C(C)=C(NC(C)=O)C1=O (centres undefined)            Inhibition             8.02
40  Cc1nc(N)nc(O)c1CCCNc1ccc(CCC2(CCl)OCCO2)cc1            Inhibition             8.53
41  CC1CCC(C(C)C)C(NC(=O)c2ccncc2)C1 (centres undefined)            Inhibition            10.65
42  O=C(CSc1nc2ccc([N+](=O)[O-])cc2s1)c1ccc2ccccc2c1            Inhibition            23.99
43  CN1CCC(=C(c2ccc(Cl)cc2)c2ccccn2)CC1.O=C(O)/C=C\C(=O)O [CYCLIRAMINE MALEATE]            Inhibition            13.03
44  O=C1c2cc([N+](=O)[O-])ccc2-c2cc(Br)c(NC(=NO)C(F)(F)F)cc21            Inhibition             6.86
45         N#Cc1cnn(-c2cccc(Cl)c2)c1-n1cccc1            Inhibition             3.39
46                           Oc1cccc2cnccc12            Inhibition            12.61
47  C1COCCN1.O=C(O)C(C=C(Cl)Cl)N1CCOCC1 (centres undefined)            Inhibition            22.22
48                    Cc1nc2ccccc2nc1N1CCCC1            Inhibition             6.96
49  CN1C(=O)CC2(C)C1=CCc1scnc12 (centres undefined)            Inhibition             4.25
